Biological target: Tyrosine-protein phosphatase non-receptor type 11 (Homo sapiens)
Sequence (Q06124 whole entry): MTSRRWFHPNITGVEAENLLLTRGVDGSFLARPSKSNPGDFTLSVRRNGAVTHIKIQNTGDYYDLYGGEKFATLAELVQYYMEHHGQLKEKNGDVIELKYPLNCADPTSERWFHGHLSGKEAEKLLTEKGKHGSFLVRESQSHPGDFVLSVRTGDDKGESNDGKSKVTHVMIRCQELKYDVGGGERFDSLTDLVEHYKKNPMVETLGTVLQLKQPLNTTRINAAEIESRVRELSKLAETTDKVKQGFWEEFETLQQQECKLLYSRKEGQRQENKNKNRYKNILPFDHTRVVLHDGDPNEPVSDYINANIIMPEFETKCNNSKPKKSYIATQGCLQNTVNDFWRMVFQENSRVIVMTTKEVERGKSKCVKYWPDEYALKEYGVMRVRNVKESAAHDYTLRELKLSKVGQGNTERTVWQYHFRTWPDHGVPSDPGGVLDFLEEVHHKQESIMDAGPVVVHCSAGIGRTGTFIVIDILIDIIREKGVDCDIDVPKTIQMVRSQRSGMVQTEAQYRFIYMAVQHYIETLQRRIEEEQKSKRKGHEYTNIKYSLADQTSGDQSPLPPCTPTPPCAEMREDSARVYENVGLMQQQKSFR
Test: Inhibition of interaction between the activated tyrosine kinase receptors and Shp2 SH2 domains in the Ras signal transduction pathway.
pIC50: −log10 of the molar value.
Quantity: pIC50

What measured pIC50 goes with "NC(=O)C[C@H](NC(=O)C1(NC(=O)[C@@H](N)Cc2ccc(OP(=O)(O)O)c(N)c2)CCCCC1)C(N)=O" ?
< 5.30

###

Assay: Inhibition of binding to N-terminal p85 SH2 domain
Quantity: pIC50
Convention used: pIC50 is expressed as -log10 of the molar concentration.

What measured pIC50 goes with "NC(=O)C[C@H](NC(=O)C1(NC(=O)[C@@H](N)Cc2ccc(OP(=O)(O)O)c(N)c2)CCCCC1)C(N)=O" ?
6.01

###

Target: Growth factor receptor-bound protein 2 (Homo sapiens)
Sequence (P62993 whole entry, the tested form may be a part): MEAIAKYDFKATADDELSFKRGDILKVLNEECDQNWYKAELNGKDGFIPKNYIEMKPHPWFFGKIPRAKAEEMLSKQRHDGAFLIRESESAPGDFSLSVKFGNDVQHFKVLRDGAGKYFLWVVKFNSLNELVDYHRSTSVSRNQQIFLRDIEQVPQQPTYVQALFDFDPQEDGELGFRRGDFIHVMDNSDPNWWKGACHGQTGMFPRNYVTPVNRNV
Test: Inhibition of binding to Grb2 SH2 domain
Could you mark each record Criterion met if its IC50 falls strictly under 20 nM, and Criterion not met if it equals or exceeds it?

Please review the entries below; each comes with its answer.
INSERT INTO results (sample_smiles, assigned_category) VALUES
  ('NC(=O)C[C@H](NC(=O)C1(NC(=O)[C@@H](N)Cc2ccc(OP(=O)(O)O)c(N)c2)CCCCC1)C(N)=O', 'Criterion met'),
  ('NC(=O)C[C@H](NC(=O)C1(NC(=O)[C@H](Cc2ccc(OP(=O)(O)O)cc2)NC(=O)OCc2cccc(N)c2)CC1)C(N)=O', 'Criterion not met'),
  ('NC(=O)C[C@H](NC(=O)C1(NC(=O)[C@H](Cc2ccc(OP(=O)(O)O)cc2)NC(=O)OCc2cccc(N)c2)CCCC1)C(N)=O', 'Criterion not met');

Just wondering, is IC50 of "NC(=O)C[C@H](NC(=O)C1(NC(=O)[C@H](Cc2ccc(OP(=O)(O)O)cc2)NC(=O)OCc2cccc(N)c2)Cc2ccccc2C1)C(N)=O" below 20 nM?
Criterion not met

Just wondering, is IC50 of "CC(C)(NC(=O)[C@@H](N)Cc1ccc(OP(=O)(O)O)c(N)c1)C(=O)N[C@@H](CC(N)=O)C(N)=O" below 20 nM?
Criterion not met

Each recorded value in this set is attributed to ChEMBL document CHEMBL1131223.
